Test system: MOLT-4 leukemia
method_notes: NCI-60 one-dose screen, 48 h (100 = growth as untreated, 0 = no growth, -100 = all killed)
assay_conditions: 10 µM
Compounds without any hit were thinned out: in the full panel of roughly 83,000, 20% have a hit.
experimental_readout: growth (%)

compound | assay_target | experimental_readout | unit_label | experimental_value
CC(=O)c1c(O)cc2c3c1OC(C)(C)C1CCC(C)(CC31)O2 (stereo not drawn) | MOLT-4 leukemia | growth | % | 78.9
CCCCOCC(=O)NC(NP(=O)(N(C)C)N(C)C)C(Cl)(Cl)Cl (stereo not drawn) | MOLT-4 leukemia | growth | % | 99.5
CS(=O)(=O)Nc1ccc(Nc2c3ccccc3nc3cc(Cl)ccc23)cc1 | MOLT-4 leukemia | growth | % | -5.91
Cc1nc2ccc(-n3c(-c4ccc(Cl)cc4)nc4ccccc4c3=O)cc2n1Cc1ccccc1 | MOLT-4 leukemia | growth | % | 84.1
COC(=O)c1cnc2c(c1)Oc1ccccc1-c1ccnn1-2 | MOLT-4 leukemia | growth | % | 91.1
CN1CCN(c2nc(-c3cccnc3)nc3sc4c(c23)CCCCCC4)CC1 | MOLT-4 leukemia | growth | % | 39.6
CCOc1ccc(-n2cc(-c3ccc(N(C)C)cc3)[n+]3c2CCCCC3)cc1 | MOLT-4 leukemia | growth | % | 13.4
O=C(N/N=c1/ccoc2cccnc12)N1CCN(c2ncccn2)CC1 | MOLT-4 leukemia | growth | % | 8.23
COc1ccc2c(c1)/C(=C/c1cc(OC)c(OC)c(OC)c1)C(=O)N2C | MOLT-4 leukemia | growth | % | 16
Cc1ccccc1C1=N[C@@H](Cc2ccccc2)C(=O)c2c(nc3ccccn23)N1 | MOLT-4 leukemia | growth | % | 111
O=C(Nc1ccc(OS(=O)(=O)Cc2ccccc2)cc1)C12CC3CC(CC(C3)C1)C2 | MOLT-4 leukemia | growth | % | 41.5
O=C(Nc1ccc(CN2CCOCC2)cc1)c1ccc(-c2cc(Cl)ccc2Cl)o1 | MOLT-4 leukemia | growth | % | 42.9
CN(C1c2ccccc2Oc2ccccc21)S(=O)(=O)c1cc(Cl)ccc1Cl | MOLT-4 leukemia | growth | % | 43.3
CCCc1ccnc(NS(=O)(=O)c2ccc(N)cc2)n1 | MOLT-4 leukemia | growth | % | 81.9
O=c1c2cccc3c(Nc4ccc(Br)cn4)ccc(c32)c2nc3ccccc3n12 | MOLT-4 leukemia | growth | % | 92.9
COc1ccc(/C(=C/c2cc(OC)c(OC)cc2[N+](=O)[O-])C(=O)O)cc1 | MOLT-4 leukemia | growth | % | 103
COc1nc2c(c(=O)[nH]1)C(c1ccc(Oc3ccnc4cc(Cl)ccc34)c(OC)c1)C=C(c1cc(OC)c(OC)c(OC)c1)N2 (stereo not drawn) | MOLT-4 leukemia | growth | % | 78
CCOC(=O)CNC(=O)Nc1ccc(Oc2ccc(NC(=O)NCC(=O)OCC)cc2)cc1 | MOLT-4 leukemia | growth | % | 107
COC(=O)c1cnc2c(c1)Oc1ccc(Cl)cc1-c1cc(C)nn1-2 | MOLT-4 leukemia | growth | % | 102
CN(C)CCCN(Cc1ccccc1O)C(=S)Nc1ccc(Cl)cc1 | MOLT-4 leukemia | growth | % | 106
CCCC(C)c1ccc(OCCCCCCN2CCNCC2)cc1 (stereo not drawn) | MOLT-4 leukemia | growth | % | -27.6
Cc1cc(=O)oc2cc(OCc3cn(CC(O)CO)nn3)ccc12 (stereo not drawn) | MOLT-4 leukemia | growth | % | 98.6
O=C(c1ccccc1)C(Nc1ccccc1)c1ccccc1 (stereo not drawn) | MOLT-4 leukemia | growth | % | 90.8
NC(N)=NS(=O)(=O)c1ccc(Nc2ccc3nnc(-c4ccncc4)n3n2)cc1 | MOLT-4 leukemia | growth | % | 101
CCCCCc1cc[n+](CC(=O)c2ccc(Cl)cc2)cc1 | MOLT-4 leukemia | growth | % | 92.7
CCOC(=O)/C(C#N)=C(/C)C1CC1 | MOLT-4 leukemia | growth | % | 114
CNC(=O)c1cc(Oc2ccc(NC(=O)Nc3ccc(Cl)c(OC(C)C)c3)c(F)c2)ccn1 | MOLT-4 leukemia | growth | % | 30.9
O=S(=O)(NCl)c1ccccc1 | MOLT-4 leukemia | growth | % | 98.3

====

Recorded measurements of growth, one per entry
System: RXF 393 renal
method_notes: NCI-60 one-dose screen, 48 h (100 = growth as untreated, 0 = no growth, -100 = all killed)
assay_conditions: 10 µM
Method: Cells are grown in 96 well plates and exposed to the test compound for 48 hours. Compounds are tested at a single concentration, which is 10^-5 M for most compounds. The reported endpoint is percent growth (GI% or GIPRCNT), where numbers from 0 - 100% represent growth inhibition, and numbers from -100% - 0 represent cell death. For example, a value of 40 represents 60% growth inhibition. A value of 0 means no net growth occurred over the course of the experiment. […]
Compounds without any hit were thinned out: in the full panel of roughly 83,000, 20% have a hit.

molecular_string | assay_target | growth [%]
C/C=C\COc1cc(C)c(Cl)cc1Cl | RXF 393 renal | 96.2
O=c1cc(CSc2nnc(-c3ccccc3)n2-c2ccc(F)cc2)c2ccc3ccccc3c2o1 | RXF 393 renal | 108
CC(=O)n1nc(C(=O)OC(C)(C)C)c2cc(F)c(F)cc21 | RXF 393 renal | 126
Cc1ccc(S(=O)(=O)Oc2ccccc2-c2ccccc2)cc1 | RXF 393 renal | 28.9
COc1ccc(Cn2cc3c(c2-c2cc(OC)c(OC)c(OC)c2)CCc2cnoc2-3)cc1N | RXF 393 renal | 35

====

Tested on: DU-145 prostate
method_notes: NCI-60 one-dose screen, 48 h (100 = growth as untreated, 0 = no growth, -100 = all killed)
assay_conditions: 10 µM
The panel holds about 83,000 compounds, 20% with a hit somewhere; the sample as a whole holds those more often.
Classification field: enter Condition met for growth values not below 90%, Condition not met for values below it.

compound | class
CCOC(=O)[C@@H]1[C@H](c2ccccc2)[C@H]([N+](=O)[O-])[C@H](c2cn(-c3ccccc3)nc2C)N1Cc1ccccc1 | Condition met
CC(CNC(Cc1ccccc1)c1ccccc1)NC(Cc1ccccc1)c1ccccc1 (stereo unspecified) | Condition not met
c1ccc(OCCC[P+](c2ccccc2)(c2ccccc2)c2ccccc2)cc1 | Condition not met
COc1cc(NS(C)(=O)=O)ccc1Nc1c2ccc(Cl)cc2nc2c(OC)cccc12 | Condition not met
CCCCCCCCCCCCCCCCCBr | Condition met
CCCC(C)c1ccc(OCCCCCCN2CCNCC2)cc1 (stereo unspecified) | Condition not met
Oc1ccccc1-c1nnc(Cn2c(Cc3cccc4ccccc34)nc3ccccc32)o1 | Condition met
COc1ccc(C(=O)/C=C/c2cc(-c3ccc4c(c3)OCO4)n[nH]2)cc1OC | Condition not met
CC(=O)Nc1nc(C)c(C(=O)NNC=O)s1 | Condition met
COc1cc(C(=O)n2nc(N)c3c(C)cc(C)nc32)cc(OC)c1OC | Condition met
Cc1ccc(NC(=O)/C=N/O)cc1C | Condition met
COc1cccc2c1O/C(=C\c1ccc([N+](=O)[O-])s1)C2=O | Condition not met
Nc1c(CNCc2nnn(Cc3ccccc3)c2N)nnn1Cc1ccccc1 | Condition met
Cc1cn(C(=O)/C(Cl)=C(/Cl)C(=O)O)c2ccccc12 | Condition met

====

System: SNB-75 CNS
method_notes: NCI-60 one-dose screen, 48 h
assay_conditions: 10 µM
This is part of a sample that, as a whole, favours compounds with a hit. Of some 83,000 tested, about 20% had one in any assay. Active and inactive are the calls of the source. Rule for the calls: active = growth percent below 10; inactive = the rest.
Outcomes: 1 (yes) for active, 0 (no) for inactive

molecule | class
CCC(O)c1ccc(Br)cc1NC(=O)c1cccc(Cl)c1 (centres undefined) | 0 (no)
O=C(NCCc1nccs1)c1cnc2c(S)cccc2c1 | 0 (no)
COc1ccccc1Cn1cc2c(c1-c1ccccc1)CCc1cnoc1-2 | 0 (no)
O=C(O)c1cc(C(F)(F)F)cc(C(F)(F)F)c1 | 0 (no)
N/C(=N\O)c1cn(C2OC(CO)C(O)C2O)c2ncnc(N)c12 (centres undefined) | 1 (yes)
Nc1c(C(=O)NC2CCCCC2)sc2nc3c(cc12)C(=O)CCC3 | 0 (no)
NC1CCC(Nc2nc(NCc3cc(Cl)ccc3O)c3ncn(C4CCCC4)c3n2)CC1 (centres undefined) | 1 (yes)
O=C(NCc1cn(Cc2cccc(Oc3ccccc3)c2)nn1)c1cccnc1Nc1ccccc1 | 0 (no)
Cc1ccc2c(c1)-c1cc(C)nn1-c1ccc(C#N)cc1O2 | 0 (no)
O=CNc1c(Cl)cc2c(c1Cl)Cc1cc([N+](=O)[O-])ccc1-2 | 0 (no)
O=C(CCc1ccccc1)N1CCN(C(=O)CCc2ccccc2)CC1 | 0 (no)
O=[N+]([O-])C1CC2C=CC1C2 (centres undefined) | 0 (no)
O=C(Nc1ccc(CN2CCOCC2)cc1)c1ccc(-c2cc(Cl)ccc2Cl)o1 | 0 (no)
CCOC(=O)[C@@H](Cc1ccccc1)NC(=O)c1[nH]c2ccc(Cl)cc2c(=O)c1C | 0 (no)
